- tested target: Pim-3 (Homo sapiens (Human), UniProt Q86V86)
pIC50: −log10 of the molar value.
readout kind: pIC50

                                   molecule                             tested_target  experimental_value
0  CCCc1cnc2c(C(=O)Nc3cncc(C)c3N3C[C@@H](N)[C@H](O)[C@@H](C)C3)c(N)oc2c1  Pim-3 (Homo sapiens (Human), UniProt Q86V86)              ≥ 8.00

# return pIC50 for each item in the list
1. COc1cnc2c(C(=O)Nc3cnccc3N3CCC[C@H](N)C3)c(N)sc2c1
2. CCCc1cnc2c(C(=O)Nc3cnccc3N3C[C@@H](N)[C@](C)(O)[C@@H](C)C3)c(N)oc2c1
3. Cc1cncc(NC(=O)c2c(N)oc3cc(C(F)(F)F)cnc23)c1N1C[C@@H](N)[C@H](O)[C@@H](C)C1
4. CC(C)N1CC(c2cnc3c(C(=O)Nc4cnccc4N4CCC[C@H](N)C4)c(N)sc3c2)C1
5. CCCc1cnc2c(C(=O)Nc3cnn(C)c3N3CCCC(N)CC3)c(N)oc2c1 (stereo not shown)

Result string:
≥ 8.00
≥ 8.00
≥ 8.00
7.00 to 8.00
≥ 8.00

Hi, could you look up pIC50 for each item in my list?
1. Cc1cncc(NC(=O)c2c(N)oc3cccnc23)c1N1C[C@@H](N)[C@H](O)[C@@H](C)C1
2. Nc1oc2cc(CN3CC[C@H](F)C3)cnc2c1C(=O)Nc1cnccc1N1C[C@@H](N)C[C@@H](C(F)(F)F)C1
3. CCc1cnc2c(C(=O)Nc3cnccc3N3C[C@H](C)C[C@H](N)C3)c(N)oc2c1
4. Nc1oc2cc(C3CCOCC3)cnc2c1C(=O)Nc1cnsc1N1C[C@@H](N)C[C@@H](C(F)(F)F)C1
5. Nc1oc2cc(Cl)cnc2c1C(=O)Nc1cnccc1N1CCC[C@H](N)C1
6. Cn1ncc(NC(=O)c2c(N)sc3cccnc23)c1N1CCC[C@H](N)C1
7. CCOC1CCN(Cc2cnc3c(C(=O)Nc4cnccc4N4C[C@@H](N)C[C@@H](C(F)(F)F)C4)c(N)oc3c2)C1 (stereo partly shown)
8. Nc1oc2cccnc2c1C(=O)Nc1cnccc1N1C[C@@H](N)C[C@@H](C(F)(F)F)C1

Result string:
≥ 8.00
≥ 8.00
≥ 8.00
≥ 8.00
≥ 8.00
≥ 8.00
≥ 8.00
≥ 8.00

List reported pIC50 for each of these molecules:
1. C[C@@H]1C[C@H](N)CN(c2ccncc2NC(=O)c2c(N)sc3cccnc23)C1
2. CC(C)c1cnc2c(C(=O)Nc3cnccc3N3CCC[C@H](N)C3)c(N)oc2c1

Result string:
["≥ 8.00", "≥ 8.00"]

Would you mind giving pIC50 for every molecule in the list below?
1. Nc1oc2cc(Br)cnc2c1C(=O)Nc1cnccc1N1CCC[C@H](N)C1
2. CCCc1cnc2c(C(=O)Nc3cnccc3N3C[C@@H](N)[C@H](O)[C@@H](C)C3)c(N)oc2c1
3. Nc1oc2c(Cl)ccnc2c1C(=O)Nc1cnccc1N1CCC[C@H](N)C1
4. Nc1oc2cc(C3CCC3)cnc2c1C(=O)Nc1cnccc1N1C[C@@H](N)C[C@@H](C(F)(F)F)C1
5. CCCc1cnc2c(C(=O)Nc3cnccc3N3C[C@@H](N)C[C@@H](C(F)(F)F)C3)c(N)oc2c1
6. Nc1oc2cc(C3CCC3)cnc2c1C(=O)Nc1cnccc1N1C[C@@H](N)[C@H](O)[C@@H](C2CC2)C1
7. Cc1cncc(NC(=O)c2c(N)oc3cccnc23)c1N1CC[C@H](N)C1
8. CNC(=O)c1ccc(-c2cnc3c(C(=O)Nc4cnccc4N4C[C@H](C)C[C@H](N)C4)c(N)oc3c2)cn1

Result string:
≥ 8.00
≥ 8.00
≥ 8.00
≥ 8.00
≥ 8.00
≥ 8.00
≥ 8.00
≥ 8.00

Go through the list and state pIC50 for each entry.
1. Cc1cnc2c(C(=O)Nc3cnccc3N3C[C@H](C)C[C@H](N)C3)c(N)oc2c1
2. Nc1oc2cc(C3CCOCC3)cnc2c1C(=O)Nc1cnccc1N1C[C@@H](N)C[C@@H](C(F)(F)F)C1
3. COC1CCN(Cc2cnc3c(C(=O)Nc4cnccc4N4C[C@@H](N)C[C@@H](C(F)(F)F)C4)c(N)oc3c2)CC1
4. Nc1sc2cccnc2c1C(=O)Nc1cnccc1N1CCCNCC1

Result string:
1. ≥ 8.00
2. ≥ 8.00
3. ≥ 8.00
4. < 7.40

// for each molecule in input: emit pIC50
1. C[C@@H]1C[C@H](N)CN(c2ccncc2NC(=O)c2c(N)oc3cc(C4CCOC4)cnc23)C1 (stereo partly shown)
2. CC(C)C(=O)Nc1cnc2c(C(=O)Nc3cnccc3N3C[C@@H](N)[C@H](O)[C@@H](C)C3)c(N)sc2c1
3. Nc1oc2cc(CN3CC(O)C3)cnc2c1C(=O)Nc1cnccc1N1C[C@@H](N)C[C@@H](C(F)(F)F)C1

Result string:
["≥ 8.00", "≥ 8.00", "≥ 8.00"]

----------
- tested target: Pim-2 (Homo sapiens (Human), UniProt Q9P1W9)
- Sequence (Q9P1W9 whole entry): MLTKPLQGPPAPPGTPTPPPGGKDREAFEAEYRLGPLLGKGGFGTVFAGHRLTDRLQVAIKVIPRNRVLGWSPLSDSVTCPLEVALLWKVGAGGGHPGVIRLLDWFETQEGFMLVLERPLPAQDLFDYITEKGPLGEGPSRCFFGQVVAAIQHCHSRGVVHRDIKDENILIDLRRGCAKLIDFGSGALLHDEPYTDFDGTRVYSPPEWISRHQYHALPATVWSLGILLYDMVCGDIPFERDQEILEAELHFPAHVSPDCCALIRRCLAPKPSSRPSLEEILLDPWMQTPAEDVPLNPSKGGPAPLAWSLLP
- measurement notes: Pim-2 kinase assay
- Format: biochemical
- measurement conditions: 1 mM ATP, fluorescein-labeled CREBtide peptide substrate; read-out: Pim2 IC50
For each of the compounds below, state its IC50.

Solved entries (count: 6):
compound	experimental value
Cn1ncc(NC(=O)c2c(N)sc3cccnc23)c1N1CCCNCC1	> 1000 nM
Cn1ncc(NC(=O)c2c(N)sc3cc(-c4ccccc4)cnc23)c1N1CCCC(N)CC1 (centres unmarked)	10 to 100 nM
C[C@@H]1C[C@H](N)CN(c2ccncc2NC(=O)c2c(N)oc3cc(Cl)cnc23)C1	10 to 100 nM
CCOc1ccnc2c(C(=O)Nc3cnccc3N3CCC[C@H](N)C3)c(N)sc12	100 to 1000 nM
Cn1cc(-c2cnc3c(C(=O)Nc4cnccc4N4C[C@@H](N)C[C@@H](C(F)(F)F)C4)c(N)oc3c2)cn1	10 to 100 nM
Nc1oc2cc(F)cnc2c1C(=O)Nc1cnccc1N1C[C@@H](N)C[C@@H](C(F)(F)F)C1	10 to 100 nM

Batch lookup, IC50 per entry.
1. Nc1oc2cc(C(F)(F)F)cnc2c1C(=O)Nc1cnccc1N1C[C@@H](N)C[C@@H](C(F)(F)F)C1
2. CCCc1cnc2c(C(=O)Nc3cnccc3N3C[C@H](C)C[C@H](N)C3)c(N)oc2c1
3. CCCc1cnc2c(C(=O)Nc3cnccc3N3C[C@@H](N)[C@H](O)[C@@H](C)C3)c(N)sc2c1

Result string:
["10 to 100 nM", "10 to 100 nM", "≤ 10 nM"]

----------
- tested target: Pim-2 (Homo sapiens (Human), UniProt Q9P1W9)
readout kind: IC50

                                   molecule  experimental_value
0  Nc1oc2cc(CN3CC[C@@H](F)C3)cnc2c1C(=O)Nc1cnccc1N1C[C@@H](N)C[C@@H](C(F)(F)F)C1 [Example 105]      0.01 to 0.1 µM
1  COc1cnc2c(C(=O)Nc3cnn(C)c3N3CCCC(N)CC3)c(N)sc2c1 (stereo not shown) [Example 13]      0.01 to 0.1 µM
2  Cc1noc(C)c1-c1cnc2c(C(=O)Nc3cnccc3N3CCC[C@H](N)C3)c(N)sc2c1 [Example 28]              > 2 µM

Please examine the following record next.
IC50 measured on Cn1ncc(NC(=O)c2c(N)sc3ccc(Cl)nc23)c1N1CCC[C@H](N)C1 [Example 41] = 0.1 to 1 µM

----------
The reader will find IC50 measurements below, all made with Pim-2 (Homo sapiens (Human)).

Take a look at these entries with their results.
                                   compound                 tested_target  experimental_value
0  Nc1oc2cc(Cl)cnc2c1C(=O)Nc1cnccc1N1CCC[C@H](N)C1  Pim-2 (Homo sapiens (Human))      0.01 to 0.1 µM
1  CC(=O)Nc1cnc2c(C(=O)Nc3cnccc3N3C[C@@H](N)[C@H](O)[C@@H](C)C3)c(N)sc2c1  Pim-2 (Homo sapiens (Human))      0.01 to 0.1 µM
2  Nc1oc2cc(C3CC3)cnc2c1C(=O)Nc1cnccc1N1C[C@@H](N)[C@H](O)[C@@H](C2CC2)C1  Pim-2 (Homo sapiens (Human))      0.01 to 0.1 µM
3  Nc1oc2cc(CN3CC(F)C3)cnc2c1C(=O)Nc1cnccc1N1C[C@@H](N)C[C@@H](C(F)(F)F)C1  Pim-2 (Homo sapiens (Human))      0.01 to 0.1 µM
4  Nc1oc2c(Cl)ccnc2c1C(=O)Nc1cnccc1N1CCC[C@H](N)C1  Pim-2 (Homo sapiens (Human))           ≤ 0.01 µM

Please state, for each entry, its recorded IC50.
1. CCCc1cnc2c(C(=O)Nc3cnccc3N3C[C@@H](N)[C@H](O)[C@@H](C4CC4)C3)c(N)oc2c1
2. Nc1oc2cc(CCN3CC[C@@H](F)C3)cnc2c1C(=O)Nc1cnccc1N1C[C@@H](N)C[C@@H](C(F)(F)F)C1
3. CC(C)Oc1ccnc2c(C(=O)Nc3cnccc3N3CCC[C@H](N)C3)c(N)sc12

Result string:
["≤ 0.01 µM", "≤ 0.01 µM", "> 1 µM"]
